biological target: wild-type EGFR (Homo sapiens, UniProt P00533); assay: EGFR kinase assay (ELISA); conditions: 30000 nM; duplicate wells, calculated from A450
Sequence (P00533 25-1210): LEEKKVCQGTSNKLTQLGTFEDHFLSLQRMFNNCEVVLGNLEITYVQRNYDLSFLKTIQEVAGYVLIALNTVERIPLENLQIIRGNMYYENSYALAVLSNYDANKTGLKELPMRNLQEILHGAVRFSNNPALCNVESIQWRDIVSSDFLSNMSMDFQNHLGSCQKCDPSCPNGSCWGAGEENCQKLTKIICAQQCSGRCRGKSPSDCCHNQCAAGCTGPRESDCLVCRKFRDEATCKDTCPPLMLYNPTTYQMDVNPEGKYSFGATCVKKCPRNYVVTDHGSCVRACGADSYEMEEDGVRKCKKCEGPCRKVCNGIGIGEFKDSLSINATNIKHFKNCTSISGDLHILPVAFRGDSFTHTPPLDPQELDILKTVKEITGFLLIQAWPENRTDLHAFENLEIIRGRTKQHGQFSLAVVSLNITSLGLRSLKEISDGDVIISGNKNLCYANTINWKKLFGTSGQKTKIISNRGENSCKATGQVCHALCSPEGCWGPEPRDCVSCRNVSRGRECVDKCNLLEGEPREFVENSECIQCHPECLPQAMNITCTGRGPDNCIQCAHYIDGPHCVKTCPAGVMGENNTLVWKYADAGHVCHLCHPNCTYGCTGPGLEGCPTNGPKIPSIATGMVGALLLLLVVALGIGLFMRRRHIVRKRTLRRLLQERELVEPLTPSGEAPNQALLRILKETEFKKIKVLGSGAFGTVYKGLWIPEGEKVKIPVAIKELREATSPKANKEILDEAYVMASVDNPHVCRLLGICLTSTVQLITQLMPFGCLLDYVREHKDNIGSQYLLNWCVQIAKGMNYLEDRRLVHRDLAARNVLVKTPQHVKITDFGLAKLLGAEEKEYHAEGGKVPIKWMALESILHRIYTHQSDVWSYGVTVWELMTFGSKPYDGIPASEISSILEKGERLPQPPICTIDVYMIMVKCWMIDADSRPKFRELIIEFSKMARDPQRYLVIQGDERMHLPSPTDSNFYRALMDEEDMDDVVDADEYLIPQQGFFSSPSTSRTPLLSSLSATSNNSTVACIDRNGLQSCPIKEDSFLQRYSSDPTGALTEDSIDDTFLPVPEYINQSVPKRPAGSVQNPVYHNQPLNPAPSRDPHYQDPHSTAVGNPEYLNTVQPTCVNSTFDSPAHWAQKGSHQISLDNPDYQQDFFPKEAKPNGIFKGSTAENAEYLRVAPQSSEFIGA
# maps each entry to its inhibition at 30 µM
Give the number; % is assumed, so skip it.

Please review the following examples before continuing.
[[record]]
compound = "COCCOc1cc2ncnc(Nc3cccc(-c4cn(-c5ccc(F)cc5)nn4)c3)c2cc1OCCOC [e7]"
property = "inhibition at 30 µM"
meas_value = 61

[[record]]
compound = "COCCOc1cc2ncnc(Nc3cccc(-c4cn(-c5ccccc5F)nn4)c3)c2cc1OCCOC [e6]"
property = "inhibition at 30 µM"
meas_value = 91.8

[[record]]
compound = "COCCOc1cc2ncnc(Nc3cccc(-c4cn(-c5ccccc5Cl)nn4)c3)c2cc1OCCOC [e8]"
property = "inhibition at 30 µM"
meas_value = 91


Please turn your attention to the following entry.
inhibition at 30 µM for COCCOc1cc2ncnc(Nc3cccc(-c4cn(-c5ccccc5Br)nn4)c3)c2cc1OCCOC [e9] is 89.8
